# key: entry, value: inhibition
assay: H1N1 influenza NS1A inhibitors, functional cell based assay (AID 504329); settings: percent inhibition, at 12.5 µM, active compounds read high
Screen size: about 340,000 compounds; about 1,000 (0.29%) were called active. Not all results are given here. Entries with a potency or affinity are not part of this list.
Write the answer as a number in %, unit excluded.

CCN1/C(=C/c2ccc3cc(C)ccc3[n+]2CC)Sc2cc(C)c(C)cc21
28.7
COc1cc(C(C)=O)ccc1OCC(=O)Nc1cc(Cl)ccc1-n1cncn1
-5.4
Cc1ccc(SCC(=O)OCC(=O)Nc2ccc3[nH]c(=O)[nH]c3c2)cc1C
-0.9

// inhibition lookup, molecule = `C[C@H](CO)N1C[C@H](C)[C@@H](CN(C)Cc2ccc(-c3ccccc3)cc2)Oc2c(NC(=O)Cc3ccccc3)cccc2C1=O` , result: 11.9

The molecule `Oc1[nH]c2ccccc2c1N=Nc1ccccc1F` showed inhibition equal to -4.52

Entry `CCN(CC(=O)Nc1c(F)cccc1F)C(=O)CNC(=O)c1ccco1` — recorded inhibition = -4.3

According to the records, this molecule `CCN1/C(=C\c2ccc3cc(C)ccc3[n+]2CC)Sc2cc(C)c(C)cc21` displays inhibition of 25.6

For record `O=C(O)c1cc2ccccc2c(N=Nc2cccnc2)c1O` the listed inhibition is 16.2

So for `O=c1[nH]c(=S)[nH]cc1Oc1ccccc1` , the logged inhibition turned out to be -0.47

inhibition recorded for this molecule, CC(=O)NC(CC(=O)OCC(=O)N1CCN(S(=O)(=O)c2ccc(Cl)cc2)CC1)c1ccccc1 (stereo not given) , is -16.1

Recorded inhibition (molecule CC(C)=CCC[C@](C)(O[C@@H]1O[C@H](CO[C@@H]2OC[C@H](O[C@@H]3OC[C@@H](O)[C@H](O)[C@H]3O)[C@H](O)[C@H]2O)[C@@H](O)[C@H](O)[C@H]1O)C1CC[C@]2(C)C1[C@H](O)CC1[C@@]3(C)CC[C@H](O)C(C)(C)C3[C@@H](O)C[C@]12C (stereo not given in full) ): -10.2

Entry under test: `NS(=O)(=O)c1ccc(N=Nc2c(O)ccc3ccccc23)cc1` . Its inhibition was 7.02

Record O=C(COC(=O)c1ccc(O)cc1)NCC1COc2ccccc2O1 (stereo not given) . Reported inhibition: -6.24

inhibition for `COc1ccccc1Nc1ccc(S(=O)(=O)N2CCCCC2)cc1[N+](=O)[O-]` is 22.4

Input `CCN1/C(=C/c2ccc3cc(C)ccc3[n+]2CC)Sc2ccccc21` . Output inhibition: 21

====

assay: H1N1 influenza NS1A inhibitors, functional cell based assay (AID 504329); details: percent inhibition, at 12.5 µM, active compounds read high
Among all 340,000 compounds or so, about 1,000 (0.29%) were called active. Not all results are given here. Results with a measured potency or affinity are listed apart.
RESULT_TYPE: inhibition

O=C(Nc1nc2c(F)cccc2s1)C1CC1
-11.6% (inactive)
Cc1nnc2sc(SCC(=O)Nc3ccc(Br)cc3)nn2c1=O
24.3% (inactive)

For this molecule ( `Cc1nnc2sc(SCC(=O)Nc3nccs3)nn2c1=O` ), measured inhibition is -3.22% (inactive)

Looking up `Cc1c(NS(=O)(=O)c2ccc(Br)cc2)c(=O)n(-c2ccccc2)n1C` , I see its inhibition listed as -8.19% (inactive)
